The values you see were collected from ChEMBL document CHEMBL6121036.

RUN_DESCRIPTION: Effect on ZFP36L2 level in human MV4-11 cells assessed as fold change at 100 nM measured after 4 hrs
Format: functional
# fold change (FC) listing for each entry below
// keep it numeric: no unit symbol after the value

Use these answered entries as a reference point.
[
  {
    "COMPOUND": "Cc1sc2c(c1C)C(c1ccc(Cl)cc1)=N[C@@H](CC(=O)N1CCC(CN3CCN(c4ccc(N5CCC(=O)NC5=O)cc4)CC3)CC1)c1nnc(C)n1-2",
    "fold change (FC)": -0.91
  },
  {
    "COMPOUND": "Cc1sc2c(c1C)C(c1ccc(Cl)cc1)=N[C@@H](CC(=O)N1CCC(CN3CCN(c4ccc(NC5CCC(=O)NC5=O)c(F)c4)CC3)CC1)c1nnc(C)n1-2 (stereo partly drawn)",
    "fold change (FC)": -0.97
  }
]

Please give the measured fold change (FC) for this compound: Cc1sc2c(c1C)C(c1ccc(Cl)cc1)=N[C@@H](CC(=O)N1CCC(CN3CCN(c4ccc5c(c4)C(=O)N(C4CCC(=O)NC4=O)C5=O)CC3)CC1)c1nnc(C)n1-2 (stereo partly drawn)
-1.07

---

RUN_DESCRIPTION: Cmax in female CD1 mouse at 10 mg/kg, po measured upto 24 hrs by LC-MS/MS analysis
Format: ADME, organism-based
TEST_CONDITIONS: in vivo
Quick rule for you: Cmax at 300 ng/mL or higher means MET, lower means NOT MET.

Observe how each entry below is paired with its result.
[
  {
    "COMPOUND": "Cc1sc2c(c1C)C(c1ccc(Cl)cc1)=N[C@@H](CC(=O)N1CCC(CN3CCN(c4ccc5c(c4)n(C)c(=O)n5C4CCC(=O)NC4=O)CC3)CC1)c1nnc(C)n1-2 (stereo not given in full)",
    "CATEGORY": "NOT MET"
  },
  {
    "COMPOUND": "Cc1sc2c(c1C)C(c1ccc(Cl)cc1)=N[C@@H](CC(=O)N1CCC(CN3CCN(c4ccc(N5CCC(=O)NC5=O)cc4)CC3)CC1)c1nnc(C)n1-2",
    "CATEGORY": "MET"
  },
  {
    "COMPOUND": "Cc1sc2c(c1C)C(c1ccc(Cl)cc1)=N[C@@H](CC(=O)N1CCC(CN3CCN(c4ccc5c(c4)C(=O)N(C4CCC(=O)NC4=O)C5=O)CC3)CC1)c1nnc(C)n1-2 (stereo not given in full)",
    "CATEGORY": "MET"
  },
  {
    "COMPOUND": "Cc1sc2c(c1C)C(c1ccc(Cl)cc1)=N[C@@H](CC(=O)N1CCC(CN3CCN(c4ccc5c(c4)oc(=O)n5C4CCC(=O)NC4=O)CC3)CC1)c1nnc(C)n1-2 (stereo not given in full)",
    "CATEGORY": "NOT MET"
  }
]

Attention now shifts to the item below.
hey, is Cmax for this one >= 300 ng/mL? Cc1sc2c(c1C)C(c1ccc(Cl)cc1)=N[C@@H](CC(=O)N1CCC(CN3CCN(c4ccc(C5CCC(=O)NC5=O)cc4)CC3)CC1)c1nnc(C)n1-2 (stereo not given in full)
MET

---

RUN_DESCRIPTION: Stability in mouse plasma assessed as half life by UPLC-MS/MS analysis
Type: ADME, cell-free
MEASUREMENT_LABEL: half-life
Kindly report the value followed by its unit.

The examples below pair each entry with its known result.
[
  {
    "MOLECULE": "Cc1sc2c(c1C)C(c1ccc(Cl)cc1)=N[C@@H](CC(=O)N1CCC(CN3CCN(c4ccc(NC5CCC(=O)NC5=O)c(F)c4)CC3)CC1)c1nnc(C)n1-2 (stereo partly specified)",
    "MEASUREMENT_LABEL": "half-life",
    "RESULT_VALUE": "19.7 h"
  },
  {
    "MOLECULE": "Cc1sc2c(c1C)C(c1ccc(Cl)cc1)=N[C@@H](CC(=O)N1CCC(CN3CCN(c4ccc(C5CCC(=O)NC5=O)cc4)CC3)CC1)c1nnc(C)n1-2 (stereo partly specified)",
    "MEASUREMENT_LABEL": "half-life",
    "RESULT_VALUE": "7.3 h"
  },
  {
    "MOLECULE": "Cc1sc2c(c1C)C(c1ccc(Cl)cc1)=N[C@@H](CC(=O)N1CCC(CN3CCN(c4ccc5c(c4)oc(=O)n5C4CCC(=O)NC4=O)CC3)CC1)c1nnc(C)n1-2 (stereo partly specified)",
    "MEASUREMENT_LABEL": "half-life",
    "RESULT_VALUE": "13.7 h"
  },
  {
    "MOLECULE": "Cc1sc2c(c1C)C(c1ccc(Cl)cc1)=N[C@@H](CC(=O)N1CCC(CN3CCN(c4ccc5c(c4)C(=O)N(C4CCC(=O)NC4=O)C5=O)CC3)CC1)c1nnc(C)n1-2 (stereo partly specified)",
    "MEASUREMENT_LABEL": "half-life",
    "RESULT_VALUE": "17.8 h"
  },
  {
    "MOLECULE": "Cc1sc2c(c1C)C(c1ccc(Cl)cc1)=N[C@@H](CC(=O)N1CCC(CN3CCN(c4cc5c(cc4F)C(=O)N(C4CCC(=O)NC4=O)C5=O)CC3)CC1)c1nnc(C)n1-2 (stereo partly specified)",
    "MEASUREMENT_LABEL": "half-life",
    "RESULT_VALUE": "13.7 h"
  }
]

Here's the next entry for you.
// query half-life value for entry Cc1sc2c(c1C)C(c1ccc(Cl)cc1)=N[C@@H](CC(=O)N1CCC(CN3CCN(c4ccc5c(c4)CN(C4CCC(=O)NC4=O)C5=O)CC3)CC1)c1nnc(C)n1-2 (stereo partly specified)
29.8 h
